assay: adipocyte viability effects, profiling panel, cell-based, 3T3-L1 adipocytes, calcein-AM fluorescence, 48 h, basal (AID 1163); settings: 3T3-L1 adipocytes viability, higher = more signal; further: test concentration not given here
Kindly state z-score for each of the entries shown.

Consider the reported z-score for these compounds:
C[C@@H]1C=CCC(=O)OC[C@H]2O[C@@H](C=C[C@@H]2O)[C@H](C)C=CCC(=O)OC[C@H]2O[C@H]1C=C[C@@H]2O: 1.15
COCCOC(=O)N1C(=O)[C@@]2(c3cc(C#CC4(O)CCCCCC4)ccc31)[C@H](C(=O)N1CCCCCCC1)[C@H]1C(=O)O[C@H](c3ccccc3)[C@H](c3ccccc3)N1[C@@H]2c1ccc(O)cc1: 2.45
O=C1NC(=O)C2C1C=CC(C(O)C=Cc1ccc([N+](=O)[O-])cc1)N2Nc1ccccn1 (configuration not stated): -1.49
C=C(CCCC)/C(=C/C[C@@H](OC(=O)c1ccncc1)c1ccc(CO)o1)c1cnc2ccccc2c1: 0.282
C=C(COC)C(=O)CC[C@H](OC(=O)c1ccccc1-c1ccccc1C(=O)O)c1cccc(OCCO)c1: -0.765

Batch of 2 compounds: report z-score for each.
1. CCN1C(C)=C(C(=O)OC)[C@@H](c2ccccc2)N2C(=O)[C@@]3(C(=O)OC)O[C@@]12[C@@H]1C(=O)N(C)C(=O)[C@@H]13
2. CCCC=C(CCC)[C@@H](NC(=O)c1ccc(C(F)(F)F)cc1)c1ccccc1

Out:
1. 0.59
2. 0.0679

* * *

Kindly state composite z-score for each of the entries shown.
test system: Sam68 (KHDRBS1); test: Sam68 small-molecule binders, primary screen, biochemical, small-molecule microarray, 635 nm fluorescence (AID 1125); settings: small-molecule microarray binding, higher = more signal;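 further: score merges 667 nm channel intensity with signal to noise over triplicate slides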
Numbers only.

O=C1c2ccccc2[C@](Cc2ccccc2I)(C(=O)O)[C@H](c2ccc(CO)cc2)N1C1CCCCC1: 1.3
CC(C)(C)OC(=O)CC[C@@]1(C(=O)NCc2ccccc2)N=C(c2ccc(OCCCO)cc2)O[C@@H]1c1ccccc1: 1.3

Then there is this molecule:
In: Hello, please tell me recorded composite z-score for this one: C=CCN1C(=O)[C@@]2(O[C@@H](CCn3cc([C@H](O)c4ccccc4)nn3)[C@H]([Si](C)(C)c3ccc(OC)cc3)[C@H]2C)c2cc(N3CCOC3=O)ccc21
Out: 1.11

* * *

target: E3 ubiquitin-protein ligase XIAP (Homo sapiens); test: XIAP binders, primary screen, biophysical, small-molecule microarray, fluorescence 635 nm (AID 1181); settings: small-molecule microarray binding, higher = more signal;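 further: score merges 667 nm emission and signal to noise over triplicate slides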
Classes are defined on composite z-score with ranges b0: < -0.1; b1: ≥ -0.1 and < 0.1; b2: ≥ 0.1

CC1=C([C@H](O)CCc2ccccc2)[C@H](CO)[C@@H]2C(=O)N(Cc3ccccc3)C(=O)[C@@H]2C1: b2

In: Lab log: COCCOC(=O)N1C(=O)[C@@]2(c3cc(C#CCNC(N)=O)ccc31)[C@H](c1ccccc1OCCO)N1[C@H](c3ccccc3)[C@H](c3ccccc3)OC(=O)[C@H]1[C@@H]2C(=O)NC[C@H](O)c1ccccc1 — assign composite z-score category
Out: b1

In: Lab log: CC(C)(C)OC(=O)CC[C@@]1(C(=O)NCc2ccccc2)N=C(c2ccc(OCCCO)cc2)O[C@@H]1c1ccccc1 — assign composite z-score category
Out: b2

In: Lab log: O=C(N1CCCCC1)[C@@]1(CCS(=O)(=O)c2ccccc2)N=C(c2ccc(OCCCO)cc2)O[C@H]1c1ccccc1 — assign composite z-score category
Out: b2

In: Lab log: COc1cc2c(cc1OC)CN(C(=O)[C@@H]1[C@H]3C(=O)O[C@H](c4ccccc4)[C@H](c4ccccc4)N3[C@H](c3ccccc3OCCO)[C@@]13C(=O)Nc1ccccc13)CC2 — assign composite z-score category
Out: b0

* * *

Kindly state z-score for each of the entries shown.
target: NADPH oxidase 4 (Homo sapiens) (UniProt Q9NPH5); assay: NOX4-dependent H2O2 signal modulators, primary screen, NOX inhibitor project, cell-based, HEK293-NOX4, tetracycline-induced, Amplex Red fluorescence (AID 1160); details: 45 min, higher = more signal, called active from +8 up or from −8 down
Sequence (Q9NPH5 whole entry, looked up): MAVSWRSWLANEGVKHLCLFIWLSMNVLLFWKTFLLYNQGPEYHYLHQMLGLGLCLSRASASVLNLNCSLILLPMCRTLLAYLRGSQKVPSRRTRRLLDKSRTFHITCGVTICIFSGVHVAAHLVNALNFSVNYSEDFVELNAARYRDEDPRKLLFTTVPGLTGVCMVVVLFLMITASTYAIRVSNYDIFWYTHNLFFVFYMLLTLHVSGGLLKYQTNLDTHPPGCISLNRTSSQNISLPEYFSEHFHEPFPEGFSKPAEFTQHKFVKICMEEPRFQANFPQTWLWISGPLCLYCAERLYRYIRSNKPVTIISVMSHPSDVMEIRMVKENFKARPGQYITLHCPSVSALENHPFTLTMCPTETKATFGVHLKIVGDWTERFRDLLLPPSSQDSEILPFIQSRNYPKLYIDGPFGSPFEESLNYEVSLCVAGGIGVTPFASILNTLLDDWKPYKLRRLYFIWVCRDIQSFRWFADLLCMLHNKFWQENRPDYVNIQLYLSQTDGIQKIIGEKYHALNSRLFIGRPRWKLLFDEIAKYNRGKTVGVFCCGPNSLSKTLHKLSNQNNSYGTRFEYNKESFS
Answers are plain numbers.

CC(=O)NCCCC[C@@H]1NC(=O)[C@H]2C[C@@H](C(=O)NCCCCCCN(C)C)[C@@H](c3ccc(O)cc3)N2C1=O: -1.51
O=C(NCC(O)CO)[C@]1(Cc2ccccc2)N=C(c2ccc(OCCCO)cc2)O[C@@H]1c1ccccc1 (stereo not given in full): 1.68
COC(=O)[C@@]1(Cc2ccc(OC)cc2)[C@H]2c3cc(C(=O)N(C)C)n(CCc4ccc(OC)c(Br)c4)c3C[C@H]2CN1C(=O)c1ccccc1: 0.493
CO[C@H]1COC(=O)[C@@H](OCc2ccccc2)C=C[C@H](C)[C@@H](OC)COC(=O)[C@H](OCc2ccccc2)C=C[C@@H]1C: 0.433
CC(C)[Si]1(C(C)C)O[C@@H](c2ccccc2)c2cc(C3CC3)nc(-c3ccc(Oc4ccccc4)cc3)c21: 0.86

Batch of 2 molecules: report z-score for each.
1. CC(=O)NCCCC[C@@H]1NC(=O)[C@@H]2C[C@H](C(=O)NCCCCCNC(=O)CS)[C@H](c3ccc(O)cc3)N2C1=O
2. Cc1ccc(S[C@]2(C(=O)NCCN3CCOCC3)CC(=O)N(C3Cc4ccccc4C3)[C@@H]2c2ccc(CO)cc2I)cc1

Out:
1: 0.284; 2: -1.59

Batch of 3 molecules: report z-score for each.
1. CC1=C([C@H](O)CCc2ccccc2)[C@H](CO)[C@@H]2C(=O)N(Cc3ccccc3)C(=O)[C@@H]2C1
2. Cc1ccc(S(=O)(=O)N[C@H]2COC(=O)CC=C[C@H](C)COC(=O)N[C@@H](C)C(=O)CC=C[C@@H]2C)cc1
3. CO[C@H]1COC(=O)[C@H](CCSC)NC(=O)CC=C[C@@H](C)COC(=O)[C@@H](OCc2ccccc2)C=C[C@@H]1C

Out:
[0.16, -1.45, -1.43]

Batch of 5 molecules: report z-score for each.
1. CC(C)CNC(=O)[C@@]1(C)c2ccccc2C(=O)N(Cc2ccc(OC(F)(F)F)cc2)[C@H]1c1ccc(CO)cc1
2. COc1ccc(CCN2C(=O)[C@@]3(c4ccc([N+](=O)[O-])cc4)CC(=O)N(CC45CC6CC(CC(C6)C4)C5)[C@@H]3c3ccc(CO)cc32)cc1
3. CCOC(=O)C1=CCC(c2cccc3ccccc23)N(S(=O)(=O)c2ccc(C)cc2)C1 (stereo not given)
4. CN(C)CCCC[C@@H]1NC(=O)[C@@H]2C[C@H](C(=O)O)[C@H](c3ccc(O)cc3)N2C1=O
5. Cc1cc(C)c(C(O)C2C=CC3C(=O)N(C)C(=O)C3N2N2CCCCC2)c(C)c1 (stereo not given)

Out:
1: 0.775; 2: -0.968; 3: 1.17; 4: -3.88; 5: 0.167

* * *

biological target: NADPH oxidase 5 (Homo sapiens) (UniProt Q96PH1); assay: NOX5-dependent H2O2 signal modulators, primary screen, NOX inhibitor project, cell-based, HEK293-NOX5, Amplex Red fluorescence (AID 1161); details: HEK293-NOX5, ionomycin, 45 min, higher = more signal
Sequence (Q96PH1 whole entry, looked up): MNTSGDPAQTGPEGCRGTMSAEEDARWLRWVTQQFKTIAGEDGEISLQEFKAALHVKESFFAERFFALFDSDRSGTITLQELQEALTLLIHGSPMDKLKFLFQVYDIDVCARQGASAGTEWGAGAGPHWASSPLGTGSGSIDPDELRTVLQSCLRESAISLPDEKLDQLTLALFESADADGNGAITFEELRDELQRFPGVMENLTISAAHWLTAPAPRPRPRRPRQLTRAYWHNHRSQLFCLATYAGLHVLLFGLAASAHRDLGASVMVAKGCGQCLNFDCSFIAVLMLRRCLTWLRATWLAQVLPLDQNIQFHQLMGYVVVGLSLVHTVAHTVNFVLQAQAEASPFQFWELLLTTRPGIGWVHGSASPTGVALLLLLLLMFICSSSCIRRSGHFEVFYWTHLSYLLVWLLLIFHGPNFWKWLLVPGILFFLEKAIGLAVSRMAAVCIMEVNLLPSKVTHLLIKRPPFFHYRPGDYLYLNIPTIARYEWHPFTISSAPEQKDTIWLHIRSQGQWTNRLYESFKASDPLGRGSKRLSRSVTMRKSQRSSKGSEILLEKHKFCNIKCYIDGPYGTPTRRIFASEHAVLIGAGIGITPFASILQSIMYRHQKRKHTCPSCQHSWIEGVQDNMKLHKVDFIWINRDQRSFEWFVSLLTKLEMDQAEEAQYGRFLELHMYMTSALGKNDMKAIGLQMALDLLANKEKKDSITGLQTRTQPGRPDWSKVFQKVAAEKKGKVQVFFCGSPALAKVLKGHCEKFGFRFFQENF
Output class 1 for z-score not less than -0.3; output class 0 otherwise.

Here are 5 compounds together with their reported answers.
C=CC[C@]1(C(=O)OC)N=C(c2ccc(OCCCO)cc2)O[C@H]1c1ccccc1CN=[N+]=[N-]: class 0
O=C1OCCC/C=C\[C@H]2OC34C=CCN(CCN5CCOCC5)C(=O)[C@H]3N(CCCCCO)C(=O)[C@@H]4C12 (stereo partly drawn): class 1
CC(c1ccccc1)C(O)C1C=CC2C(=O)N(C)C(=O)C2N1N(c1ccccc1)c1ccccc1 (stereo not drawn): class 0
C=CCC(OC(C)=O)[C@@H]1[C@@H](N(Cc2ccc(-c3cccc(C(F)(F)F)c3)o2)C(=O)Cc2ccc(F)cc2)c2cc(OCCCO)ccc2N1C(=O)c1ccc(-c2ccccc2)cc1 (stereo partly drawn): class 1
CO[C@@H]1COC(=O)[C@H](COCc2ccccc2)NC(=O)CC=C[C@@H](C)[C@H](OC)COC(=O)[C@H](COCc2ccccc2)NC(=O)CC=C[C@H]1C: class 1

In: Quick check, z-score >= -0.3? C[C@H]1C2[C@H](Cc3ccccc3)NC(=O)[C@]23C(=O)N[C@H](Cc2ccccc2)C(=O)N[C@@H](Cc2ccccc2)C(=O)NC/C=C\C/C=C/C3[C@@H]2O[C@]12C (stereo partly drawn)
Out: class 1

In: Quick check, z-score >= -0.3? COC(=O)C1=CC(c2ccc(CO)cc2)=CC(C2CC2)N(Cc2sc3ccccc3c2Cl)C=C1C(=O)OC (stereo not drawn)
Out: class 1

In: Quick check, z-score >= -0.3? COc1cc2c(cc1OC)CN(C(=O)[C@H]1[C@@H]3C(=O)O[C@@H](c4ccccc4)[C@@H](c4ccccc4)N3[C@@H](c3ccc(O)cc3)[C@]13C(=O)Nc1ccc(C#CC4(O)CCCCCC4)cc13)CC2
Out: class 1

In: Quick check, z-score >= -0.3? O=C1C[C@@](C(=O)NC2CC2)(c2ccc([N+](=O)[O-])cc2)[C@@H](c2ccc(CO)cc2I)N1CC12CC3CC(CC(C3)C1)C2
Out: class 1

In: Quick check, z-score >= -0.3? C=C[C@H](OC)[C@@H](OC(=O)Nc1ccc(SC)cc1)c1ccc(O)c(F)c1
Out: class 0

In: Quick check, z-score >= -0.3? CO[C@@H]1COC(=O)CC=C[C@H](C)COC(=O)[C@H](Cc2ccccc2)NC(=O)CC=C[C@H]1C
Out: class 1
